Cited source for all entries: a melting point compilation (Tetko et al.; mined from patent text by program, amines drawn as free bases though some values may be those of a salt)

assay metric: melting point

COc1ccc(C(=O)C2C(Cl)=CC=CC2(C)Cl)cc1Br (centres undefined)    159 °C
CCOC(=O)C(C(=O)N(C)C)=C(OCc1ccccc1)c1ccc(Cl)cc1Cl    115 °C
O=C(O)c1ccc(OCCNC(=O)C2Cc3ccccc3N2S(=O)(=O)c2ccc(-c3ccc(F)cc3)cc2)c(F)c1 (centres undefined)    118 °C
CSc1c(NC(C)=O)cnc2ccccc12    137 to 138 °C
CC=Cc1c(N)nc(-c2ccc(C(F)(F)F)cc2)nc1C(=O)OC    123 to 125 °C
CCCCN1CC2CN(S(=O)(=O)c3ccc(NC(C)=O)cc3)CC(C1)C2(C)C    130 °C

What does the record list as melting point for `COc1cc(-c2cc(=O)c3ccc(OCCCBr)cc3o2)cc(OC)c1OC` ? 156 to 157 °C

Next compound up: `COc1cc(C=O)ccc1OCc1ccc2ccccc2c1` 107 to 108 °C

Next compound up: `COC(=O)c1sc(CBr)cc1NC(=O)Nc1ccc(C)cc1` 157 to 158 °C

====

Consider the following compounds and their measured melting point readings.

Worked cases, melting point given:
CC(=O)N1CCC2(CC1)Cc1ccccc1O2    94 to 97 °C
CCc1ncc(CCCOc2c(C)cc(C#N)cc2C)s1    52 to 53 °C
CCOC(=O)C(C#N)NC(=O)OCc1ccccc1 (stereo not drawn)    111 to 112 °C
CCNC(=O)Nc1ccc(Oc2ccc3nc(COc4ccc(CC5SC(=O)NC5=O)cc4)n(C)c3c2)cc1 (stereo not drawn)    227 to 230 °C

What does the record list as melting point for `CNc1cc(F)ccc1C(=O)O` ? 180 to 181 °C

Next compound up: O=C1NC(=O)C(Cc2ccc(S(=O)(=O)CCCc3ccccc3)cc2)S1 (stereo not drawn) 126 to 127 °C

Next compound up: `C#Cc1c(Cl)cccc1Cl` 97 to 98 °C

Next compound up: `CC(=O)OCC(CCn1cnc2c(Cl)nc(N)nc21)COC(C)=O` 135 to 137 °C

Next compound up: `CCOC(=O)CNC(=O)n1nc(Oc2cccc(C(F)(F)F)c2)cc1C` 66 to 68 °C

Next compound up: `Cc1ccccc1-n1ccc(=O)c(-c2ccnn2-c2ccccc2)n1` 120 to 121 °C

Next compound up: CCC(NC(=S)Nc1nc(C)cs1)C(C)C (stereo not drawn) 164 to 166 °C

Next compound up: `O=C(O)[C@H](Cc1ccccc1)NS(=O)(=O)N1CCOCC1` 157 to 158 °C

Next compound up: CC(C(=O)O)c1ccc(C2CCCCC2)c2ccccc12 (stereo not drawn) 150 °C

Next compound up: `CC(C)=C1CNc2ccc(O)cc21` 175 to 178 °C

Next compound up: `COc1ccccc1N1CCN(C(=O)N(C)c2cc(C)c(C)nc2OC)CC1` 131 to 132 °C

Next compound up: CC(c1oc2ccc(Br)cc2c(=O)c1-c1ccccc1)n1ncc2c(N)ncnc21 (stereo not drawn) 239 to 240 °C

Next compound up: `CC(=CCc1c(C)nc(N)nc1O)c1cc(Cl)ccc1Cl` > 250 °C

Next compound up: `Cc1c(F)cc(C(=N)N)c(Oc2ncccc2Oc2cccnc2)c1F` 213 to 214 °C

Next compound up: `Cc1cccc(-c2c(O)c3ccc(Cl)cc3[nH]c2=O)c1` > 350 °C

Next compound up: `CCc1nc2c(N)nc3cccnc3c2n1CCCCCC(N)=O` 220 to 221 °C

Next compound up: `CCOC(=O)c1cnccc1CSc1nc(C)c(CC(=O)O)s1` 139 to 141 °C

Next compound up: `COc1ccc(-c2c3c(cc4ccc5c(c24)OCO5)C(=O)NCC3)cc1` 245 to 247 °C

Next compound up: `CCCNCCc1c[nH]c2ccc(NC(N)=O)cc12` 146 to 147 °C

====

Consider the following compounds and their measured melting point readings.

COc1ccc(-c2cc(-c3c(-c4ccccn4)nc4ccccn34)ccn2)cc1    222 °C
O=S(=O)(CCN1CCC2(CC1)OCc1ccccc12)CCN1CCC2(CC1)OCc1ccccc12    170 to 172 °C
COc1cccc(C(=O)c2ccc([N+](=O)[O-])c(C=O)c2)c1    84 °C

# next compound below
What does the record list as melting point for `O=c1c2ccc(O)cc2oc2c(O)c(O)ccc12` ? > 300 °C

====

Consider the following molecules and their measured melting point readings.

COc1cc2ncnc(N3CCc4cc([N+](=O)[O-])c(Cl)cc43)c2cc1OC    276 to 278 °C
CCOc1ccc2[nH]c(C(=O)O)cc2c1    180 °C
COc1cc(Nc2c(C#N)cnc3cc(OCCCN4CCN(C)CC4)c(OC)cc23)c(Cl)cc1Cl    116 to 120 °C

What does the record list as melting point for CCCCc1oc2ccccc2c1C(=O)NCc1ccc2c(Br)c(OC(Cc3ccccc3)C(=O)O)ccc2c1 (centres undefined) ? 125 to 130 °C

Next molecule up: `CC(=O)OCc1ncc2n1-c1ccc(Cl)cc1C(c1ccccc1F)=[N+]([O-])C2` 203 to 205 °C

Next molecule up: CCC1(C=O)CSc2ccccc2C(c2ccccc2)=N1 (racemic) 98 to 100 °C

Next molecule up: `COc1cc(C)cc(OC)c1-c1ccccc1C(=O)O` 187 °C

Next molecule up: Cc1ccc(S(=O)(=O)N2CCCC2c2ccco2)cc1 (racemic) 58 °C

Next molecule up: `Cn1c(-c2ccc3ccccc3c2)n[nH]c1=S` 223 to 225 °C

====

Consider the following molecules and their measured melting point readings.

Worked cases, melting point given:
COc1cc(F)nc(NC(=O)NS(=O)(=O)c2ccccc2OS(C)(=O)=O)n1    168 to 169 °C
COC(=O)COc1ccc(C(C)=O)c(O)c1    101 to 103 °C
COC(=O)c1cc(=O)n(C)c2ccc(C(=O)c3ccc(Cl)cc3)cc12    182 °C

What does the record list as melting point for `CC(C)(C)NC(=O)NC1=CC(=O)CCC1` ? 223 to 225 °C

Next molecule up: `COc1ccc2c(c1)c1c(n2C)CCCC1=O` 150 to 151 °C

Next molecule up: `COc1cc(/C=C/C(=O)Oc2ccc(NC(C)=O)cc2)ccc1O` 185 to 195 °C

Next molecule up: `COc1cccc(-c2nc(N)ncc2-c2ccc(=O)n(C)n2)c1` 195 °C

Next molecule up: COc1c(C)cccc1CC(N)(CF)C(N)=O (configuration not stated) 118 °C

Next molecule up: `N#Cc1ccc(-c2ccc(C=O)cc2)c(OCc2ccccc2)c1` 131 to 132 °C

====

assay metric: melting point

Worked cases, melting point given:
NC(=O)CN1C(=O)C[C@@H]2CCCCCC[C@@H]21 (relative stereo)    110 to 112 °C
COC(=O)c1cc(=O)c2cc(OC)c(=O)ccc2n1C    181 to 183 °C
CCCCCCC(C(=O)N1CCC[C@H]1C(=O)O)n1cnc(NC(=O)c2ccccc2S(=O)(=O)O)c1 (some centres not stated)    190 to 195 °C
O=c1[nH]c(=O)n(CCCCN2CC=C(c3ccc(Cl)cc3)CC2)c2ccccc12    162 to 166 °C
O=C1CCC(c2ccc(OC(F)(F)F)cc2)N1 (configuration not stated)    105 to 106 °C
CO[C@@H](Cc1ccc(OCCc2nc(-c3ccc(-c4ccccc4)cc3)oc2C)c2ccccc12)C(=O)O    156 to 159 °C

What does the record list as melting point for `COC(=O)N1CCc2onc(O)c2CC1` ? 127 to 128 °C

Next compound up: `NC(=O)COc1cccc(N)c1` 107 to 111 °C

Next compound up: `NC(=O)c1ccnc(-c2cccc3cc(Cc4cc(F)cc(Cl)c4)sc23)c1` 173 to 175 °C

Next compound up: `CCOC(=O)c1sc(Oc2cccnc2)c2c1CCc1cnn(C)c1-2` 247 to 248 °C

Next compound up: CCn1c(C(C)NS(=O)(=O)c2ccc(Cl)c(Cl)c2)cnc1Oc1ccc(C)cc1 (configuration not stated) 142 to 144 °C

Next compound up: `CCOC(=O)c1cc(C)c2nc(CC)[nH]c2n1` 151 to 153 °C

Next compound up: CN1NC=CC1c1ccc(C(=O)N2Cc3cccn3Cc3ccccc32)c(Cl)c1 (configuration not stated) 78 to 79 °C

====

assay metric: melting point

CCCCCC/C=C/[C@@H](O)[C@H](CO)N=[N+]=[N-]    29 to 30 °C

What does the record list as melting point for `O=Cc1cccnc1SCc1ccccc1` ? 71.5 to 73 °C

Next molecule up: `Cc1nn(-c2cccnc2)cc1C(=O)O` 200 to 210 °C

Next molecule up: `O=C(O)Cc1ccc2c(c1)sc1ccccc12` 174 to 176 °C

Next molecule up: CC(C)NC(=O)N1CCC(CN2C(=O)C3(COc4cc5c(cc43)CCO5)c3ccccc32)C1 (stereo unspecified) 107 to 115 °C

Next molecule up: `O=C(NCc1ccccc1)N1C(=O)[C@H](O)[C@@H]1c1ccccc1` 165 to 168 °C

Next molecule up: `CCCCCCCCCCCCCCSc1ccc(C(=O)O)s1` 106 to 108 °C
